- TEST_SYSTEM: Cathepsin B (Homo sapiens) (UniProt P07858)
- PROTOCOL_NOTES: human cathepsin B inhibitors, primary screen, biochemical, fluorogenic substrate (AID 453);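 note: 0% = enzyme with no compound and 100% = no enzyme blank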
- SETUP_CONDITIONS: purified cathepsin B, fluorescence, hits give high values,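 tested at 10 µM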
About 75 (0.1%) of roughly 63,000 compounds were called active. The entries come from a sample that favours actives as a whole.
Can you tell me inhibition for the items I'm about to list?
One number for each entry, in %.

Solved cases (3 shown):
{"columns": ["COMPOUND", "inhibition, %"],
 "data": [
  ["CSc1ncccc1C(=O)OCC(=O)N1CCOCC1", 4.46],
  ["CC(=O)N(CN1C(=O)C2CC=CCC2C1=O)c1cccc(Cl)c1 (configuration not stated)", -3.62],
  ["O=C(CSc1nnnn1C1CCCC1)Nc1ccc2c(c1)OCCO2", -2.88]
]}

Report inhibition for each item below.
1. Cc1ccc(NC(=O)NCC(c2cccnc2)N2CCOCC2)cc1 (configuration not stated)
2. CCCCC(CCC(=O)Nc1ccc(C(=O)OCC)cc1)C(=O)O (configuration not stated)
3. Cn1c2c(c(=O)n(C)c1=O)CN(Cc1ccco1)CN2
4. N#Cc1ccccc1-n1c(N)c(C(=O)N2CCCC2)sc1=S
5. CC(C)C(=O)N1CCN(c2nc(-c3ccccc3)c3c(c2C#N)CC(C)(C)OC3)CC1
6. CC(C)c1nc(N2CCOCC2)c(C#N)c2c1COC(C)(C)C2
7. CC(NC(=O)CN1CCN(Cc2ccc(Cl)cc2)C1=O)c1ccc2c(c1)OCCO2 (configuration not stated)

1: -2.73; 2: -0.09; 3: 2.04; 4: 4.81; 5: 1.01; 6: 1.28; 7: 0.3

Report inhibition for each item below.
1. CC(C)(C)n1nnnc1C(c1cccs1)N(Cc1cccnc1)CC1CCCO1 (configuration not stated)
2. CCOC(=O)[C@H]1CCC[C@@H](NS(=O)(=O)c2ccc(NC(C)=O)cc2)C1

1. 3.9
2. 1.14
